# Tested on: Fasciola hepatica Newly Excysted Juveniles (NEJs)
# METHOD_SUMMARY: whole organism screen of Fasciola hepatica NEJs: microscopic scoring of phenotype and motility (viability)
# TEST_PARAMETERS: 72 h, in comparison to live DMSO controls; triclabendazole + control at 10 μM; concentration of test compounds not given
Score (mean) motility 1 to 5 (highest) reference
MEASUREMENT_TYPE: Score (mean) motility 1 to 5 (highest)

molecule=Cn1nc(C(F)(F)C(F)(F)F)c(C(F)(F)F)c1-n1cc(-c2ccc(Cl)c(C(=O)NC3(C#N)CC3)c2)cn1 measurement_type="Score (mean) motility 1 to 5 (highest)" value=4.8
molecule=CSc1nc2cc(Cl)c(Oc3cccc(Cl)c3Cl)cc2[nH]1 measurement_type="Score (mean) motility 1 to 5 (highest)" value=5.0
molecule="O=C(CNC(=O)c1ccc(C2=NOC(c3cc(Cl)cc(C(F)(F)F)c3)(C(F)(F)F)C2)c2ccccc12)NCC(F)(F)F (centres unmarked)" measurement_type="Score (mean) motility 1 to 5 (highest)" value=5.0
molecule=C#CCNC(=O)CNC(=O)c1sc(C2=NO[C@@](c3cc(Cl)c(Cl)c(Cl)c3)(C(F)(F)F)C2)c2c1CCCC2 measurement_type="Score (mean) motility 1 to 5 (highest)" value=4.8
molecule="CS(=O)(=O)CC(=O)N1CC2(C1)OCc1cc(C3=NO[C@@](c4cc(Cl)c(F)c(Cl)c4)(C(F)(F)F)C3)ccc12 (stereo in doubt)" measurement_type="Score (mean) motility 1 to 5 (highest)" value=5.0
molecule=C#CCNC(=O)CNC(=O)c1sc(C2=NO[C@@](c3cc(Cl)c(Cl)c(Cl)c3)(C(F)(F)F)C2)cc1C measurement_type="Score (mean) motility 1 to 5 (highest)" value=5.0
molecule=C#CCNC(=O)CNC(=O)c1sc(C2=NO[C@](c3cc(Cl)c(Cl)c(Cl)c3)(C(F)(F)F)C2)c2c1CCCC2 measurement_type="Score (mean) motility 1 to 5 (highest)" value=5.0
molecule="Cc1cc(C2=NSC(c3cc(Cl)cc(Cl)c3)(C(F)(F)F)C2)ccc1C(=O)NCC(=O)NCC(F)(F)F (centres unmarked)" measurement_type="Score (mean) motility 1 to 5 (highest)" value=5.0
